Data provenance: patent US6596863B2

Tested on: human MMP-9 (gelatinase B) (Homo sapiens, UniProt P14780)
Construct: endogenous in cells; host or cells: HT1080 human fibrosarcoma cells (ATCC CCL-121), PMA-stimulated; enzyme purified from the culture supernatant
Sequence (P14780 107-707 limits assumed): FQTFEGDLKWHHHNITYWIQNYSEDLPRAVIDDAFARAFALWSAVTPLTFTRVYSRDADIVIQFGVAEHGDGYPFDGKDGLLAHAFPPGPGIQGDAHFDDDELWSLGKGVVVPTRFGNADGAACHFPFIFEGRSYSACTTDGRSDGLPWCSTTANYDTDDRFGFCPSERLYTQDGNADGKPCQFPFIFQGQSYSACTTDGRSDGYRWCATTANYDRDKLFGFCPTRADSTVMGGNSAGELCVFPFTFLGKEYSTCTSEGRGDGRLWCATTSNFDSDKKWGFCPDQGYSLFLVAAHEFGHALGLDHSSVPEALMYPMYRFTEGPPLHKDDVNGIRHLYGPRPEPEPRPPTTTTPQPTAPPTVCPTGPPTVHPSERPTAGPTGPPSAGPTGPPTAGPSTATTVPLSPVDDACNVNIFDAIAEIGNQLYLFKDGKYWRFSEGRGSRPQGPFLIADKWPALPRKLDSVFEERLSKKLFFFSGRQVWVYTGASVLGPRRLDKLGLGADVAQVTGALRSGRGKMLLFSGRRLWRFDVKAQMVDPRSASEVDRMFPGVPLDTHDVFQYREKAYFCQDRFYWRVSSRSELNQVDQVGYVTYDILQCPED
Assay notes: Inhibition activity against human MMP-9 (gelatinase B), fluorescent peptide substrate
Type: biochemical
Reported conditions: compounds of the formula (I); 2nd measurement; read-out: MMP-9 inhibition activities IC50, 2nd
Recorded metric: IC50 (µM)

Answered cases to consult:
Molecule | Unit text | IC50
CNC(=C[N+](=O)[O-])NN(C)c1ccc(C(F)(F)F)cn1 | µM | 24.3
COc1ccc(NC(=C[N+](=O)[O-])NNc2ccc(C(F)(F)F)cn2)cc1 | µM | 13.7
NNC(=C[N+](=O)[O-])Nc1ccc(F)cc1 | µM | 29.3

I = CNC(=C[N+](=O)[O-])NN=CC=Cc1ccccc1
II = CNC(=C[N+](=O)[O-])NN=C(C)c1ccccn1
Could you point out whether the larger IC50 belongs to I or to II ? # respond with the chosen item's label
II

1 = NNC(=C[N+](=O)[O-])Nc1ccc2cn[nH]c2c1
2 = CNC(=C[N+](=O)[O-])NNS(=O)(=O)c1cccc2ccccc12
3 = CNC(=C[N+](=O)[O-])NNc1cccc(C(=O)O)c1
4 = CNC(=C[N+](=O)[O-])NNc1cc(C(F)(F)F)cc(C)n1 [compound 27]
Number of molecules to sort: 4. Sort criterion: IC50, ascending. Give the labels in the order requested.
2, 1, 4, 3

1 = CNC(=C[N+](=O)[O-])NN=Cc1ccc2c(c1)OCO2
2 = CNC(=C[N+](=O)[O-])NN=Cc1ccc(C)cc1
Could you point out whether the larger IC50 belongs to 1 or to 2 ? # respond with the chosen item's label
2

====

Tested on: human MMP-9 (gelatinase B) (Homo sapiens)
Construct: endogenous in cells; host or cells: HT1080 human fibrosarcoma cells (ATCC CCL-121), PMA-stimulated; enzyme purified from the culture supernatant
Assay notes: Inhibition activity against human MMP-9 (gelatinase B), fluorescent peptide substrate
Type: biochemical
Reported conditions: compounds of the formula (I); average of 1st and 2nd (or single measurement); read-out: MMP-9 inhibition activities IC50, Average
Experimental: Human MMP-9 (gelatinase B) was purified by the following method from a culture supernatant of HT1080 cells (human fibrosarcoma). […] The inhibition activity against human MMP-9 was measured by the following method in accordance with the method by C. […]
pIC50: −log10 of the molar value.
Recorded metric: pIC50

Answered cases to consult:
Molecule | Result number
CNC(=C[N+](=O)[O-])NNc1cccc(C(F)(F)F)n1 | 5.14
CCCCOc1cc(C(F)(F)F)cc(NNC(=C[N+](=O)[O-])NC)n1 [compound 178] | 4.91
CNC(=C[N+](=O)[O-])NNc1ncccn1 | 4.52
CNC(=C[N+](=O)[O-])NNc1ccc2ccccc2n1 | 5.68
CNC(=C[N+](=O)[O-])NNc1cc(C(F)(F)F)cc(C)n1 [compound 27] | 4.59

I = CNC(=C[N+](=O)[O-])NN=C(C)c1cccs1
II = CNC(=C[N+](=O)[O-])NNC(O)C(F)(F)F (stereo not shown)
Could you point out whether the larger pIC50 belongs to I or to II ? # respond with the chosen item's label
I
(I: 4.60, II: 4.31)

====

Tested on: human MMP-9 (gelatinase B) (Homo sapiens)
Construct: endogenous in cells; host or cells: HT1080 human fibrosarcoma cells (ATCC CCL-121), PMA-stimulated; enzyme purified from the culture supernatant
Assay notes: Inhibition activity against human MMP-9 (gelatinase B), fluorescent peptide substrate
Assay type: biochemical
Reported conditions: compounds of the formula (I); 1st measurement; read-out: MMP-9 inhibition activities IC50, 1st
Recorded metric: IC50 (µM)

Answered cases to consult:
Compound | Tested on | Recorded metric | Result number
CCOCCCOc1cc(C(F)(F)F)cc(NNC(=C[N+](=O)[O-])NC)n1 [compound 197] | human MMP-9 (gelatinase B) (Homo sapiens) | IC50 | 10.3
CNC(=C[N+](=O)[O-])NN=C(C)c1ccncc1 [compound 38] | human MMP-9 (gelatinase B) (Homo sapiens) | IC50 | 13.7

P = NNC(=C[N+](=O)[O-])NCc1ccc(C(F)(F)F)cc1 [compound 78]
Q = CNC(=C[N+](=O)[O-])NNc1cc(C(F)(F)F)cc(OC)n1 [Compound No. 98]
Could you point out whether the larger IC50 belongs to P or to Q ? # respond with the chosen item's label
P
(P: 44.1 µM, Q: 8.8 µM)

====

Tested on: human MMP-9 (gelatinase B) (Homo sapiens, UniProt P14780)
Construct: endogenous in cells; host or cells: HT1080 human fibrosarcoma cells (ATCC CCL-121), PMA-stimulated; enzyme purified from the culture supernatant
Assay notes: Inhibition activity against human MMP-9 (gelatinase B), fluorescent peptide substrate
Format: biochemical
Reported conditions: compounds of the formula (I); average of 1st and 2nd (or single measurement); read-out: MMP-9 inhibition activities IC50, Average
Recorded metric: IC50 (µM)

Structure smiles | Result number
C=CCOc1cc(C(F)(F)F)cc(NNC(=C[N+](=O)[O-])NC)n1 | 8.1
CNC(=C[N+](=O)[O-])NNc1cc(C(F)(F)F)cc(OCC(F)(F)F)n1 | 11.6

A = CNC(=C[N+](=O)[O-])NNc1ccccc1
B = Cc1ccc(NC(=C[N+](=O)[O-])NN)cc1
When the recorded IC50 values are compared, which is smaller: that of A or that of B ? # respond with the chosen item's label
B

====

Tested on: human MMP-9 (gelatinase B) (Homo sapiens, UniProt P14780)
Construct: endogenous in cells; host or cells: HT1080 human fibrosarcoma cells (ATCC CCL-121), PMA-stimulated; enzyme purified from the culture supernatant
Assay notes: Inhibition activity against human MMP-9 (gelatinase B), fluorescent peptide substrate
Format: biochemical
Reported conditions: compounds of the formula (I); average of 1st and 2nd (or single measurement); read-out: MMP-9 inhibition activities IC50, Average
pIC50: −log10 of the molar value.
Recorded metric: pIC50

Compound | Result number
CNC(=C[N+](=O)[O-])NNc1ccc(C)cc1 | 4.33
O=[N+]([O-])C=C(NNc1ccccc1)Nc1ccccc1 | 4.46
CNC(=C[N+](=O)[O-])NNc1c([N+](=O)[O-])c(C)nn1C | 4.84
CCOc1ccc(NC(=C[N+](=O)[O-])NN)cc1 | 4.30
NNC(=C[N+](=O)[O-])NC1CCCCC1 | 4.38

P = CNC(=C[N+](=O)[O-])NN=Cc1ccc(C)cc1
Q = CNC(=C[N+](=O)[O-])NNc1cc(C(F)(F)F)cc(OCC2CC2)n1
R = CNC(=C[N+](=O)[O-])NNc1cc(C(F)(F)F)cc(C)n1 [compound 131]
S = CNC(=C[N+](=O)[O-])NNc1ccccc1C
Number of compounds to sort: 4. Sort criterion: pIC50, ascending. Give the labels in the order requested.
S, P, Q, R

P = NNC(=C[N+](=O)[O-])Nc1ccc(O)cc1
Q = CNC(=C[N+](=O)[O-])NN=Cc1cccc(C(F)(F)F)c1
Could you point out whether the larger pIC50 belongs to P or to Q ? # respond with the chosen item's label
Q
(Q: 4.85, P: 4.47)

====

The reader will find reported melting point values listed item by item below.

Answered cases to consult:
Compound | Result
CNC(=C[N+](=O)[O-])NNc1cc(C(F)(F)F)cc(OCCOC(C)(C)C)n1 | 170 °C (dec.)
NNC(=C[N+](=O)[O-])Nc1ccc(F)cc1 | 183.5 °C (dec.)
CNC(=C[N+](=O)[O-])NNc1c([N+](=O)[O-])c(C)nn1C | 164 °C (dec.)
CCOC(=O)c1ccc(NC(=C[N+](=O)[O-])SC)cc1 [Intermediate 50] | 116 to 123 °C

Look up melting point for this compound: "CNC(=C[N+](=O)[O-])NNc1c(Cl)cncc1Cl"
197 °C (dec.)

Record: "CNC(=C[N+](=O)[O-])NNc1ccccc1C"
171 °C (dec.)

Record: "CNC(=C[N+](=O)[O-])NNc1ccccc1[N+](=O)[O-]"
194 °C (dec.)

Record: "CNC(=C[N+](=O)[O-])NNc1cc(C(F)(F)F)cc(OCc2ccccc2Cl)n1"
162 °C (dec.)

Record: "CNC(=C[N+](=O)[O-])NNc1cc(C(F)(F)F)cc(OCCc2ccccn2)n1"
181 °C (dec.)

Record: "CNC(=C[N+](=O)[O-])NNc1cccc(C(=O)O)c1"
250 °C

Record: CSC(=C[N+](=O)[O-])NC1CCCC1 [Intermediate 3]
82 to 87.5 °C

====

Tested on: human MMP-9 (gelatinase B) (Homo sapiens)
Construct: endogenous in cells; host or cells: HT1080 human fibrosarcoma cells (ATCC CCL-121), PMA-stimulated; enzyme purified from the culture supernatant
Assay notes: Inhibition activity against human MMP-9 (gelatinase B), fluorescent peptide substrate
Type: biochemical
Reported conditions: intermediates, compounds of the formula (IV); average of 1st and 2nd (or single measurement); read-out: MMP-9 inhibition activities IC50, Average
Recorded metric: IC50 (µM)

Compound | Unit text | IC50
COc1ccc(NC(=C[N+](=O)[O-])SC)cn1 [Intermediate 49] | µM | 29.3
CSC(=C[N+](=O)[O-])NS(C)(=O)=O [Intermediate 57] | µM | 43.5
CSC(=C[N+](=O)[O-])Nc1ccc([N+](=O)[O-])cc1 [Intermediate 11] | µM | 16.8
CSC(=C[N+](=O)[O-])Nc1c(C)nn(C)c1C [Intermediate 54] | µM | 36.3
CSC(=C[N+](=O)[O-])NC(C)C [Intermediate 10] | µM | 36.8

P = CSC(=C[N+](=O)[O-])Nc1ccc2cn[nH]c2c1 [Intermediate 55]
Q = CSC(=C[N+](=O)[O-])Nc1ccc(F)cc1 [Intermediate 21]
Could you point out whether the larger IC50 belongs to P or to Q ? # respond with the chosen item's label
Q
(Q: 43 µM, P: 29 µM)
